- TARGET ENTITY: Penicillin-binding protein 2X (Streptococcus pneumoniae R6) (UniProt P59676)
- Sequence (P59676 whole entry): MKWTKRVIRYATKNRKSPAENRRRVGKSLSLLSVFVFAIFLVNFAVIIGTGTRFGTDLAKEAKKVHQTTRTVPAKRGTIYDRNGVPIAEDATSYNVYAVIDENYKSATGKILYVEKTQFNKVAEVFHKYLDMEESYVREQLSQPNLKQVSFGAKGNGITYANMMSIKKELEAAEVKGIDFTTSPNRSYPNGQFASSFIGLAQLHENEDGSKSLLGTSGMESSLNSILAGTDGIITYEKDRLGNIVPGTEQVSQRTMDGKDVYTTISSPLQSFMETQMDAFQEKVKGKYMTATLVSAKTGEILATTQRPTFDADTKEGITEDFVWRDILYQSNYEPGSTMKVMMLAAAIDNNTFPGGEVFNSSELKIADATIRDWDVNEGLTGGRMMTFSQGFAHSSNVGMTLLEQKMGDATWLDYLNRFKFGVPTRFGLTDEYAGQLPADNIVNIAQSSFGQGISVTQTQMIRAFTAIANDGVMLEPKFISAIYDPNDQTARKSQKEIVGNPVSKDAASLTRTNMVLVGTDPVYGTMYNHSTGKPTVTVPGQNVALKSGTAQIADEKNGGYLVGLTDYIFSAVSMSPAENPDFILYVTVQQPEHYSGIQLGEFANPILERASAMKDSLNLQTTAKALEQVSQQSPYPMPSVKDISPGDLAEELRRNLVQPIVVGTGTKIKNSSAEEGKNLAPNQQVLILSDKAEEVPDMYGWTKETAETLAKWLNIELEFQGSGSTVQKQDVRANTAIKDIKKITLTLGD
- METHOD NOTES: Inhibition of penicillin-sensitive Streptococcus pneumoniae R6 PBP2x using S2d as substrate assessed as residual activity at 1 mM incubated for 60 mins prior to substrate addition by DTNB-based spectrophotometry
Below, each of the molecules is paired with its reported Activity value.
Could you write the number and then its unit?

These recorded examples may help you get a feel for the data.
LINE NOTATION: O=C(CCC1CCCC1)NCB(O)O
OBSERVED MEASUREMENT: 79%
//
LINE NOTATION: COc1cccc(C(=O)NCB(O)O)c1
OBSERVED MEASUREMENT: 55%
//
LINE NOTATION: COc1cccc(OC)c1C(=O)NCB(O)O
OBSERVED MEASUREMENT: 26%
//
LINE NOTATION: O=C(NCB(O)O)c1ccc(Cl)cc1
OBSERVED MEASUREMENT: 89%
//
LINE NOTATION: O=C(Cc1ccc(Cl)cc1)NCB(O)O
OBSERVED MEASUREMENT: 32%

State, in one line, measured Activity of O=C(NCB(O)O)c1ccccc1F
56%

Name the recorded Activity of the item COc1ccc(C(=O)NCB(O)O)cc1OC in your answer.
82%

Give Activity for the following molecule: O=C(Cc1ccccc1)NCB(O)O
57%

Using known records, supply Activity for COc1ccc(C(=O)NCB(O)O)cc1
81%

Hello, please tell me recorded Activity for this one: CC(=O)NCB(O)O
100%

----------
- Test system: Streptococcus pneumoniae
- METHOD NOTES: Inhibition of Streptococcus pneumoniae PBP1b assessed as residual activity at 1mM incubated for 60 mins prior to fluoresceyl-ampicillin labelling measured after 20 mins by SDS-PAGE analysis in the presence of triton X 100
Activity vs 30%: less than gives YES; not less than gives NO.

Take a look at these entries with their results.
LINE NOTATION: O=C(NCB(O)O)c1ccc(Cl)cc1
ASSIGNED LABEL: YES
--
LINE NOTATION: O=C(CCc1ccccc1)NCB(O)O
ASSIGNED LABEL: YES
--
LINE NOTATION: O=C(NCB(O)O)c1ccccc1
ASSIGNED LABEL: NO

Determine whether this molecule shows Activity lower than 30% (ties excluded): O=C(Cc1ccc(Cl)cc1)NCB(O)O
YES

Activity under 30%? Item: COc1ccc(C(=O)NCB(O)O)c(OC)c1
YES

Here's an entry: COc1cccc(C(=O)NCB(O)O)c1 . Is its Activity below 30%?
YES

Hello, I'm reviewing records and need to know if Activity of O=C(Cc1ccccc1Cl)NCB(O)O is below 30%. Could you check?
YES

API: query returns whether the molecule falls strictly under 30% in Activity. Query: COc1ccc(C(=O)NCB(O)O)cc1OC
NO

----------
- TARGET ENTITY: D-alanyl-D-alanine carboxypeptidase (Actinomadura sp. R39)
- METHOD NOTES: Inhibition of Actinomadura sp. R39 PBP using S2d as substrate assessed as residual activity at 1 mM incubated for 60 mins prior to substrate addition by DTNB-based spectrophotometry
A collection of compounds and their measured Activity
Field: numeric (%). Do not append units.

LINE NOTATION: O=C(NCB(O)O)c1ccccc1C(F)(F)F
PARAMETER: Activity
UNIT DESCRIPTOR: %
OBSERVED MEASUREMENT: 5
//
LINE NOTATION: O=C(CCc1ccccc1)NCB(O)O
PARAMETER: Activity
UNIT DESCRIPTOR: %
OBSERVED MEASUREMENT: 51
//
LINE NOTATION: O=C(NCB(O)O)c1ccccc1F
PARAMETER: Activity
UNIT DESCRIPTOR: %
OBSERVED MEASUREMENT: 30

Indicate the recorded Activity value for this compound: COc1ccc(C(=O)NCB(O)O)cc1OC
81

Determine its reported Activity: COc1cccc(OC)c1C(=O)NCB(O)O
0

Provide one value: measured Activity of COc1ccccc1C(=O)NCB(O)O
43
